Here the recorded growth inhibition is given for each entry.
Test: NCI Yeast Anticancer Drug Screen. Data for the bub3 strain (AID 167)
Conditions: S. cerevisiae bub3 mutant strain, at 50.0 µM, active compounds read high
Procedure: Growth inhibition of yeast strains with defined genetic alterations is measured as a screen for potential anti-cancer activity. Selected strains with alterations in DNA damage repair or cell cycle control were exposed to compounds and growth inhibition was measured relative to vehicle treated controls. The strain used in this assay is bub3
Compounds without any hit were thinned out: in the full panel of roughly 79,000, 15% have a hit.
Number in %, nothing else.

Previously resolved entries follow.
# compound, growth inhibition, %
rows = [
    ("Cc1ccccc1N=C(N)Nc1ccccc1", -10.6),
    ("CCCCCc1c2c(c(CCCCC)c3c1-c1cccc4cccc-3c14)-c1ccc(C)cc1C2", -0.3),
]

Consider the record given below.
Per the record, `C=Cc1c(C)c(OC)cc2c1Oc1ccc(OC)c(C)c1CC2` has growth inhibition of 13.8
